- System: HCV replicons (Huh-7 luc/neo cells, NS3-NS5B regions of HCV type 1b)
- experiment: Replicon assay (Huh-Luc luciferase, HCV RNA replication)
- Type: cell-based
- cond: Hepatitis C virus, Huh-7, 72 h; Huh-Luc cells, three days incubation, luciferase activity; read-out: EC50 Replicon assay
pEC50: −log10 of the molar value.
value type: pEC50

# input Report pEC50 for `CN1CCCC/C=C\[C@@H]2C[C@@]2(C(=O)NS(=O)(=O)C2CC2)NC(=O)[C@@H]2C[C@@H](OC(=O)Nc3cccc(C#N)c3)C[C@H]2C1=O` please.
# output 6.00 to 6.70

# input Please report the recorded pEC50 for `COc1cccc(NC(=O)O[C@@H]2C[C@H]3C(=O)N[C@]4(C(=O)NS(=O)(=O)C5CC5)C[C@H]4/C=C\CCCCN(C)C(=O)[C@@H]3C2)c1` .
# output 5.00 to 6.00

# input What does the data say about its pEC50? Entry: `Cc1nc(-c2cccc(NC(=O)O[C@@H]3C[C@H]4C(=O)N[C@]5(C(=O)NS(=O)(=O)C6CC6)C[C@H]5/C=C\CCCCN(C)C(=O)[C@@H]4C3)c2)cs1`
# output 5.00 to 6.00
